Entry source: patent US20260042731A1

System: Amaranthus rudis (AMATA), tall water hemp
experimental details: Postemergence herbicide evaluation, growth of Amaranthus rudis (AMATA)
Assay type: in vivo
particulars: Amaranthus tuberculatus, post-emergence, 336 h, 560 g ae/ha, 14 DAA; read-out: Ave. AMATA, percent reduction in plant size relative to the untreated control
Answer each item with its documented pest or weed control at 560 g/ha.
Give bare numbers, in %.

Previously resolved entries follow.
O=C(COc1ccc(Cl)cc1Cl)Nc1c(Cl)c(F)nc(F)c1Cl
25
O=C(COc1ccc(Cl)cc1Cl)Oc1cncnc1
97
C[N+](C)(C)CCOC(=O)COc1ccc(Cl)cc1Cl.[Cl-]
85

State the recorded pest or weed control at 560 g/ha for every item in the following list.
1. COc1ccc(/C=N/OC(=O)COc2ccc(Cl)cc2Cl)cc1
2. C/C(=N\OC(=O)COc1ccc(Cl)cc1Cl)c1ccncc1

**Result**
96
96

---

Answer each item with its documented pest or weed control at 280 g/ha.
System: Chenopodium album (CHEAL), common lambsquarters
experimental details: Postemergence herbicide evaluation, growth of Chenopodium album (CHEAL)
Format: in vivo
particulars: Chenopodium album, post-emergence, 168 h, 280 g ae/ha, 7 DAA, percent reduction in plant size vs untreated control; read-out: Ave. CHEAL
Give bare numbers, in %.

Previously resolved entries follow.
O=C(COc1ccc(Cl)cc1Cl)Oc1cccnc1
75
COc1ccc(CONC(=O)COc2ccc(Cl)cc2Cl)cc1
85
O=C(COc1ccc(Cl)cc1Cl)Nc1ccnc(Cl)c1
77.5
O=C(COc1ccc(Cl)cc1Cl)Nc1cccnc1
82.5
C/C(=N\OC(=O)COc1ccc(Cl)cc1Cl)C(=O)c1ccccc1
75

State the recorded pest or weed control at 280 g/ha for every item in the following list.
1. CCN(CC)OC(=O)COc1ccc(Cl)cc1Cl
2. O=C(COc1ccc(Cl)cc1Cl)NOC1CCCCO1 (stereo not shown)
3. O=C(COc1ccc(Cl)cc1Cl)NOCCc1ccccc1
4. O=C(COc1ccc(Cl)cc1Cl)Nc1ccccn1
5. O=C(COc1ccc(Cl)cc1Cl)ONC(=O)C1CCCC1

**Result**
1. 77.5
2. 77.5
3. 75
4. 80
5. 77.5

---

Answer each item with its documented TGA Data (rate of weight loss, volatility).
experimental details: Volatility of compounds measured by thermogravimetric analysis (TGA)
Format: physicochemical
Numbers only, in µg/min.

Previously resolved entries follow.
N#C/C(=N\OC(=O)COc1ccc(Cl)cc1Cl)c1ccccc1
7.2
C/C(N)=N/OC(=O)COc1ccc(Cl)cc1Cl
5.8
O=C(COc1ccc(Cl)cc1Cl)O/N=C/c1ccncc1
0.9679
N/C(Cc1ccccc1)=N\OC(=O)COc1ccc(Cl)cc1Cl
4.1
CC(C)CONC(=O)COc1ccc(Cl)cc1Cl
0.2649

State the recorded TGA Data (rate of weight loss, volatility) for every item in the following list.
1. Cc1nccc(NC(=O)COc2ccc(Cl)cc2Cl)c1C
2. CS/C(C)=N\OC(=O)COc1ccc(Cl)cc1Cl

**Result**
1. 0.09713
2. 0.6

State the recorded TGA Data (rate of weight loss, volatility) for every item in the following list.
1. CCO/C(CC)=N\OC(=O)COc1ccc(Cl)cc1Cl
2. Cc1cc(OC(=O)COc2ccc(Cl)cc2Cl)n(C)n1
3. O=C(COc1ccc(Cl)cc1Cl)Nc1ccccn1
4. O=C(COc1ccc(Cl)cc1Cl)n1cnc2ccccc21
5. O=C(COc1ccc(Cl)cc1Cl)Oc1ccccn1

**Result**
[0.5, 1, 0.06, 0.2, 0.4827]

---

Tested on: Ambrosia artemisiifolia (AMBEL), common ragweed
experimental details: Postemergence herbicide evaluation, growth of Ambrosia artemisiifolia (AMBEL)
Type: in vivo
particulars: Ambrosia artemisiifolia, post-emergence, 504 h, 560 g ae/ha, 21 DAA; read-out: AVE. AMBEL, percent reduction in plant size relative to the untreated control
measure: pest or weed control at 560 g/ha (%)
Give bare numbers, in %.

Previously resolved entries follow.
COc1ccc(/C=N/OC(=O)COc2ccc(Cl)cc2Cl)cc1
100
Cc1nccc(NC(=O)COc2ccc(Cl)cc2Cl)c1C
100
O=C(COc1ccc(Cl)cc1Cl)O/N=C1\CCCc2ccccc21
82.5

State the recorded pest or weed control at 560 g/ha for every item in the following list.
1. O=C(COc1ccc(Cl)cc1Cl)Oc1ncc(Cl)cn1
2. CC(C)ONC(=O)COc1ccc(Cl)cc1Cl

**Result**
1: 100; 2: 100

State the recorded pest or weed control at 560 g/ha for every item in the following list.
1. O=C(COc1ccc(Cl)cc1Cl)Nc1cc[nH]n1
2. C/C(=N\OC(=O)COc1ccc(Cl)cc1Cl)c1ccncc1
3. C[N+](C)(C)CCOC(=O)COc1ccc(Cl)cc1Cl.[Cl-]
4. N/C(=N\OC(=O)COc1ccc(Cl)cc1Cl)c1ccccc1
5. N/C(=N\OC(=O)COc1ccc(Cl)cc1Cl)c1cccnc1
6. C/C(=N\OC(=O)COc1ccc(Cl)cc1Cl)c1ccccc1
7. O=C(COc1ccc(Cl)cc1Cl)Oc1cncnc1
8. O=C(COc1ccc(Cl)cc1Cl)Nc1nccs1

**Result**
[100, 100, 98, 90, 85, 100, 99.5, 100]

State the recorded pest or weed control at 560 g/ha for every item in the following list.
1. O=C(COc1ccc(Cl)cc1Cl)Nc1c(Cl)c(F)nc(F)c1Cl
2. C/C(=N\OC(=O)COc1ccc(Cl)cc1Cl)c1cccnc1
3. O=C(COc1ccc(Cl)cc1Cl)O/N=C/c1ccncc1
4. O=C(COc1ccc(Cl)cc1Cl)O/N=C/c1ccccn1
5. O=C(COc1ccc(Cl)cc1Cl)Oc1cccnn1 [Compound E2]
6. O=C(COc1ccc(Cl)cc1Cl)O/N=C/c1ccccc1
7. O=C(COc1ccc(Cl)cc1Cl)O/N=C/c1cccnc1

**Result**
[7.5, 100, 100, 100, 99, 100, 100]

---

System: Amaranthus rudis (AMATA), tall water hemp
experimental details: Postemergence herbicide evaluation, growth of Amaranthus rudis (AMATA)
Assay type: in vivo
particulars: Amaranthus tuberculatus, post-emergence, 168 h, 280 g ae/ha, 7 DAA, percent reduction in plant size vs untreated control; read-out: Ave. AMATA
measure: pest or weed control at 280 g/ha
For clarity, give the value followed by its unit.

Previously resolved entries follow.
O=C(COc1ccc(Cl)cc1Cl)NOC1CCCCO1 (centres unmarked)
75%
O=C(COc1ccc(Cl)cc1Cl)NOCc1ccc(Cl)cc1
75%

State the recorded pest or weed control at 280 g/ha for every item in the following list.
1. O=C(COc1ccc(Cl)cc1Cl)Nc1ccccn1
2. O=C(COc1ccc(Cl)cc1Cl)Oc1cccnc1
3. O=C(COc1ccc(Cl)cc1Cl)Oc1ccccn1
4. CONC(=O)COc1ccc(Cl)cc1Cl
5. O=C(COc1ccc(Cl)cc1Cl)Nc1cccnc1
6. COc1ccc(CONC(=O)COc2ccc(Cl)cc2Cl)cc1
7. O=C(COc1ccc(Cl)cc1Cl)ONC(=O)C1CCCC1

**Result**
1. 80%
2. 77.5%
3. 70%
4. 77.5%
5. 80%
6. 72.5%
7. 91.5%

State the recorded pest or weed control at 280 g/ha for every item in the following list.
1. C=CCONC(=O)COc1ccc(Cl)cc1Cl
2. O=C(COc1ccc(Cl)cc1Cl)NOCCc1ccccc1
3. C/C(=N\OC(=O)COc1ccc(Cl)cc1Cl)C(=O)c1ccccc1
4. O=C(COc1ccc(Cl)cc1Cl)Nc1ccnc(Cl)c1
5. Cc1nc2ccccc2n1C(=O)COc1ccc(Cl)cc1Cl
6. O=C(COc1cc(Cl)cc(Cl)c1)OCCCOC(=O)COc1ccc(Cl)cc1Cl
7. CCN(CC)OC(=O)COc1ccc(Cl)cc1Cl
8. Cc1cc(NC(=O)COc2ccc(Cl)cc2Cl)n(C)n1

**Result**
["92.5%", "72.5%", "70%", "72.5%", "62.5%", "57.5%", "80%", "75%"]

---

Test system: Chenopodium album (CHEAL), common lambsquarters
experimental details: Postemergence herbicide evaluation, growth of Chenopodium album (CHEAL)
Format: in vivo
particulars: Chenopodium album, post-emergence, 504 h, 560 g ae/ha, 21 DAA; read-out: Ave. CHEAL, percent reduction in plant size relative to the untreated control
measure: pest or weed control at 560 g/ha (%)
Numbers only, in %.

Previously resolved entries follow.
C/C(=N\OC(=O)COc1ccc(Cl)cc1Cl)c1ccccc1 [Compound A1]
98
O=C(COc1ccc(Cl)cc1Cl)O/N=C/c1cccnc1 [Compound A29]
97.5
O=C(COc1ccc(Cl)cc1Cl)Nc1c(Cl)c(F)nc(F)c1Cl [Compound D25]
15
O=C(COc1ccc(Cl)cc1Cl)Nc1nccs1 [Compound D24]
95
C/C(=N\OC(=O)COc1ccc(Cl)cc1Cl)c1ccncc1 [Compound A27]
100

State the recorded pest or weed control at 560 g/ha for every item in the following list.
1. O=C(COc1ccc(Cl)cc1Cl)Nc1cc[nH]n1 [Compound D21]
2. O=C(COc1ccc(Cl)cc1Cl)Nc1ccon1 [Compound D2]
3. Cc1nccc(NC(=O)COc2ccc(Cl)cc2Cl)c1C [Compound D26]

**Result**
[96, 97, 95]
